- System tested: Gβ1γ2 (Homo sapiens)
- Sequence (P62873 whole entry): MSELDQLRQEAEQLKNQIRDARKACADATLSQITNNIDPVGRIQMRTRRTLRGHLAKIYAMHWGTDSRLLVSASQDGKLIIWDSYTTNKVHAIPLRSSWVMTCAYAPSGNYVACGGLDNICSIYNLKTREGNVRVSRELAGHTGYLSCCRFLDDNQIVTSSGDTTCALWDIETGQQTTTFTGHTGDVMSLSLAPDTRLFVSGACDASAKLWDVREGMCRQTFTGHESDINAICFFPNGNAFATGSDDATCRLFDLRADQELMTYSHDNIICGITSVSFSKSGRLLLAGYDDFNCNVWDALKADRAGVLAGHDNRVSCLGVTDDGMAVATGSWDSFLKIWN
- Sequence (P59768 2-68 partner limits assumed): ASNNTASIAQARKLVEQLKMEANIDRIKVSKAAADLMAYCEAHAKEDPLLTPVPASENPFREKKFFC
- Procedure details: Surface plasmon resonance direct binding to immobilized biotinylated Gβ1γ2
- Condition details: Kd (M), Equilibrium titration
Quantity name: Kd (M)

- Compound: "O=C(O)C1CCCCC1c1c2ccc(=O)c(O)c-2oc2c(O)c(O)ccc12 (stereo not shown)"
  Measurement: "4.6e-07"
